Hey, just so you know, these numbers are from ChEMBL document CHEMBL3632576.

Known pIC50 of a selection of molecules
# target: Acetylcholinesterase (Homo sapiens)
# Sequence (P22303 whole entry): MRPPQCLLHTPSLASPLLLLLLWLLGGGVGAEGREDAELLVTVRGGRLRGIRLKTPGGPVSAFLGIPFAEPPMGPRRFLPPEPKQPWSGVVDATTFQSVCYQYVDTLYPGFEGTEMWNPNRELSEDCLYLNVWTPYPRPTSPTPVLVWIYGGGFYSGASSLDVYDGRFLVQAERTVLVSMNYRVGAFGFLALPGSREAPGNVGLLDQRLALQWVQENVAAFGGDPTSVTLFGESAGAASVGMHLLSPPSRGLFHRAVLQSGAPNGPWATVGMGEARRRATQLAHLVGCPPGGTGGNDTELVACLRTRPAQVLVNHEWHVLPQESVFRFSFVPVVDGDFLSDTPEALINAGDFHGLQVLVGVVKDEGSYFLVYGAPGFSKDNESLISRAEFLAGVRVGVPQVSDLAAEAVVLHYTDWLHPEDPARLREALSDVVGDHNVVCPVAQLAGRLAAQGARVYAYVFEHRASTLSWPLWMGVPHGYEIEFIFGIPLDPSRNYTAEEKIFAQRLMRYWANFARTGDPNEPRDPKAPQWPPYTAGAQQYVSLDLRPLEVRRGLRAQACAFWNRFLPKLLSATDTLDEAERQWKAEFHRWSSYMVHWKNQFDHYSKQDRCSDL
pIC50: −log10 of the molar value.
readout: pIC50

| molecule | experimental.result |
| --- | --- |
| Cc1c(C)c2c(c(C)c1O)CCC(C)(C(=O)NCCCCCCCCNc1c3c(nc4ccccc14)CCCC3)O2 (stereo not drawn) | 6.16 |
| Cc1c(C)c2c(c(C)c1O)CCC(C)(C(=O)NCCCCNc1c3c(nc4cc(Cl)ccc14)CCCC3)O2 (stereo not drawn) | 6.82 |
| Cc1c(C)c2c(c(C)c1O)CCC(C)(C(=O)NCCNc1c3c(nc4cc(Cl)ccc14)CCCC3)O2 (stereo not drawn) | 6.68 |
| Cc1c(C)c2c(c(C)c1O)CCC(C)(C(=O)NCCCCCNc1c3c(nc4ccccc14)CCCC3)O2 (stereo not drawn) | 6.21 |
| Cc1c(C)c2c(c(C)c1O)CCC(C)(C(=O)NCCCNc1c3c(nc4ccccc14)CCCC3)O2 (stereo not drawn) | 6.59 |
| COc1ccc2nc3c(c(NCCCCNC(=O)C4(C)CCc5c(C)c(O)c(C)c(C)c5O4)c2c1)CCCC3 (stereo not drawn) | 5.14 |
| Cc1c(C)c2c(c(C)c1O)CCC(C)(C(=O)NCCNc1c3c(nc4ccccc14)CCCC3)O2 (stereo not drawn) | 5.16 |
| Cc1c(C)c2c(c(C)c1O)CCC(C)(C(=O)O)O2 (stereo not drawn) | 3.73 |
| COc1ccc2nc3c(c(NCCCCCNC(=O)C4(C)CCc5c(C)c(O)c(C)c(C)c5O4)c2c1)CCCC3 (stereo not drawn) | 4.88 |
| Cc1c(C)c2c(c(C)c1O)CCC(C)(C(=O)NCCCCCCNc1c3c(nc4cc(Cl)ccc14)CCCC3)O2 (stereo not drawn) | 7.00 |
| Cc1c(C)c2c(c(C)c1O)CCC(C)(C(=O)NCCCCCCCCNc1c3c(nc4cc(Cl)ccc14)CCCC3)O2 (stereo not drawn) | 7.10 |
| Cc1c(C)c2c(c(C)c1O)CCC(C)(C(=O)NCCCCCCCNc1c3c(nc4ccccc14)CCCC3)O2 (stereo not drawn) | 6.16 |
| COc1ccc2nc3c(c(NCCNC(=O)C4(C)CCc5c(C)c(O)c(C)c(C)c5O4)c2c1)CCCC3 (stereo not drawn) | 5.36 |
| Cc1c(C)c2c(c(C)c1O)CCC(C)(C(=O)NCCCCCNc1c3c(nc4cc(Cl)ccc14)CCCC3)O2 (stereo not drawn) | 6.92 |
| COc1ccc2nc3c(c(NCCCCCCCNC(=O)C4(C)CCc5c(C)c(O)c(C)c(C)c5O4)c2c1)CCCC3 (stereo not drawn) | 5.17 |
| COc1ccc2nc3c(c(NCCCCCCCCNC(=O)C4(C)CCc5c(C)c(O)c(C)c(C)c5O4)c2c1)CCCC3 (stereo not drawn) | 5.46 |
| COc1ccc2nc3c(c(NCCCCCCNC(=O)C4(C)CCc5c(C)c(O)c(C)c(C)c5O4)c2c1)CCCC3 (stereo not drawn) | 5.18 |
| Cc1c(C)c2c(c(C)c1O)CCC(C)(C(=O)NCCCCCCCNc1c3c(nc4cc(Cl)ccc14)CCCC3)O2 (stereo not drawn) | 7.10 |

---

# experiment.notes: Permeability of the compound at 50 to 100 uM after 18 hrs by PAMPA
# Format: physicochemical
# condition.context: read-out: permeability
Known Papp at 18 h, 100 µM of a selection of compounds
readout: Papp at 18 h, 100 µM

| compound | readout | experimental.result |
| --- | --- | --- |
| Cc1c(C)c2c(c(C)c1O)CCC(C)(C(=O)NCCCCCCCCNc1c3c(nc4cc(Cl)ccc14)CCCC3)O2 (configuration not stated) | Papp at 18 h, 100 µM | 5 ×10⁻⁶ cm/s |
| Cc1c(C)c2c(c(C)c1O)CCC(C)(C(=O)NCCNc1c3c(nc4ccccc14)CCCC3)O2 (configuration not stated) | Papp at 18 h, 100 µM | 4.4 ×10⁻⁶ cm/s |
